FYI, the data here is from the supplement of paper PMC9112550.

Tested on: Escherichia coli TOP10;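 note: peptides expressed intracellularly from a pBAD plasmid library in pooled LB shake-flask culture, induced with 0.3% L-arabinose, DNA abundance read by NGS, three biological replicates, DESeq2 with apeglm shrinkage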
experimental_details: shrunken log2 fold change of peptide-encoding DNA abundance (4.5 h post-induction vs induction); higher = less antimicrobial activity (less host growth inhibition)
assay_context: time post-induction: 4.5 h; library: site-saturation at positions 5, 18, 19, 20
Our labelling divides records by shrunken log2 fold change into ranges: b0 = under -0.06, b1 = from -0.06 up to 0.2, b2 = 0.2 and over

>  <biopolymer_sequence>
RRIRDRPPRLPRPRPRPWFTPRP

>  <class>
b0

$$$$
>  <biopolymer_sequence>
RRIRQRPPRLPRPRPRPNRRPRP

>  <class>
b1

$$$$
>  <biopolymer_sequence>
RRIRPRPPRLPRPRPRPTHCPRP

>  <class>
b1

$$$$
>  <biopolymer_sequence>
RRIRMRPPRLPRPRPRPWSWPRP

>  <class>
b1

$$$$
>  <biopolymer_sequence>
RRIRARPPRLPRPRPRPDKEPRP

>  <class>
b1

$$$$
>  <biopolymer_sequence>
RRIRCRPPRLPRPRPRPADCPRP

>  <class>
b1

$$$$
>  <biopolymer_sequence>
RRIRHRPPRLPRPRPRPTWLPRP

>  <class>
b2

$$$$
>  <biopolymer_sequence>
RRIRWRPPRLPRPRPRPHSHPRP

>  <class>
b1

$$$$
>  <biopolymer_sequence>
RRIRRRPPRLPRPRPRPVGNPRP

>  <class>
b1

$$$$
>  <biopolymer_sequence>
RRIRARPPRLPRPRPRPPRFPRP

>  <class>
b2

$$$$
>  <biopolymer_sequence>
RRIRMRPPRLPRPRPRPRSAPRP

>  <class>
b2

$$$$
>  <biopolymer_sequence>
RRIRKRPPRLPRPRPRPDPFPRP

>  <class>
b0

$$$$
>  <biopolymer_sequence>
RRIRNRPPRLPRPRPRPSHMPRP

>  <class>
b0

$$$$
>  <biopolymer_sequence>
RRIRQRPPRLPRPRPRPQDNPRP

>  <class>
b0

$$$$
>  <biopolymer_sequence>
RRIRKRPPRLPRPRPRPQLCPRP

>  <class>
b1

$$$$
>  <biopolymer_sequence>
RRIRPRPPRLPRPRPRPGLHPRP

>  <class>
b1

$$$$
>  <biopolymer_sequence>
RRIRCRPPRLPRPRPRPTGRPRP

>  <class>
b2

$$$$
>  <biopolymer_sequence>
RRIRGRPPRLPRPRPRPHNEPRP

>  <class>
b2

$$$$
>  <biopolymer_sequence>
RRIRHRPPRLPRPRPRPTRPPRP

>  <class>
b2

$$$$
>  <biopolymer_sequence>
RRIRPRPPRLPRPRPRPGDAPRP

>  <class>
b2

$$$$
>  <biopolymer_sequence>
RRIRCRPPRLPRPRPRPMGYPRP

>  <class>
b0

$$$$
>  <biopolymer_sequence>
RRIRGRPPRLPRPRPRPAMKPRP

>  <class>
b2

$$$$
>  <biopolymer_sequence>
RRIRCRPPRLPRPRPRPQIGPRP

>  <class>
b1

$$$$
>  <biopolymer_sequence>
RRIRLRPPRLPRPRPRPHWTPRP

>  <class>
b1

$$$$
>  <biopolymer_sequence>
RRIRRRPPRLPRPRPRPVRCPRP

>  <class>
b2

$$$$
>  <biopolymer_sequence>
RRIRYRPPRLPRPRPRPYPYPRP

>  <class>
b1

$$$$
>  <biopolymer_sequence>
RRIRIRPPRLPRPRPRPDREPRP

>  <class>
b1

$$$$
>  <biopolymer_sequence>
RRIRTRPPRLPRPRPRPFWQPRP

>  <class>
b1

$$$$
>  <biopolymer_sequence>
RRIRTRPPRLPRPRPRPRTVPRP

>  <class>
b1

$$$$
>  <biopolymer_sequence>
RRIRHRPPRLPRPRPRPHKHPRP

>  <class>
b0

$$$$
>  <biopolymer_sequence>
RRIRSRPPRLPRPRPRPHFCPRP

>  <class>
b0

$$$$
>  <biopolymer_sequence>
RRIRIRPPRLPRPRPRPWNDPRP

>  <class>
b0

$$$$
>  <biopolymer_sequence>
RRIRPRPPRLPRPRPRPFWIPRP

>  <class>
b0

$$$$
>  <biopolymer_sequence>
RRIRIRPPRLPRPRPRPKYAPRP

>  <class>
b0

$$$$
>  <biopolymer_sequence>
RRIRLRPPRLPRPRPRPTFPPRP

>  <class>
b1

$$$$
>  <biopolymer_sequence>
RRIRFRPPRLPRPRPRPPFSPRP

>  <class>
b0

$$$$
>  <biopolymer_sequence>
RRIRYRPPRLPRPRPRPMAQPRP

>  <class>
b0

$$$$
>  <biopolymer_sequence>
RRIRGRPPRLPRPRPRPCCSPRP

>  <class>
b1

$$$$
>  <biopolymer_sequence>
RRIRYRPPRLPRPRPRPQYPPRP

>  <class>
b0

$$$$
>  <biopolymer_sequence>
RRIRMRPPRLPRPRPRPKLNPRP

>  <class>
b2

$$$$
>  <biopolymer_sequence>
RRIRRRPPRLPRPRPRPRTQPRP

>  <class>
b1

$$$$
>  <biopolymer_sequence>
RRIRKRPPRLPRPRPRPRPWPRP

>  <class>
b2

$$$$
>  <biopolymer_sequence>
RRIRCRPPRLPRPRPRPWSNPRP

>  <class>
b1

$$$$
>  <biopolymer_sequence>
RRIRDRPPRLPRPRPRPAMTPRP

>  <class>
b2

$$$$
>  <biopolymer_sequence>
RRIRGRPPRLPRPRPRPVDTPRP

>  <class>
b2

$$$$
>  <biopolymer_sequence>
RRIRDRPPRLPRPRPRPVMTPRP

>  <class>
b2

$$$$
>  <biopolymer_sequence>
RRIRWRPPRLPRPRPRPLASPRP

>  <class>
b2

$$$$
>  <biopolymer_sequence>
RRIRYRPPRLPRPRPRPTYHPRP

>  <class>
b0

$$$$
>  <biopolymer_sequence>
RRIRMRPPRLPRPRPRPCHIPRP

>  <class>
b1

$$$$
>  <biopolymer_sequence>
RRIRERPPRLPRPRPRPQGLPRP

>  <class>
b0

$$$$
>  <biopolymer_sequence>
RRIRLRPPRLPRPRPRPWMHPRP

>  <class>
b1

$$$$
>  <biopolymer_sequence>
RRIRMRPPRLPRPRPRPNQRPRP

>  <class>
b2

$$$$
>  <biopolymer_sequence>
RRIRPRPPRLPRPRPRPTQDPRP

>  <class>
b2

$$$$
>  <biopolymer_sequence>
RRIRCRPPRLPRPRPRPFRWPRP

>  <class>
b2

$$$$
>  <biopolymer_sequence>
RRIRSRPPRLPRPRPRPCIQPRP

>  <class>
b0

$$$$
>  <biopolymer_sequence>
RRIRIRPPRLPRPRPRPLYEPRP

>  <class>
b0

$$$$
>  <biopolymer_sequence>
RRIRMRPPRLPRPRPRPCMDPRP

>  <class>
b1

$$$$
>  <biopolymer_sequence>
RRIRYRPPRLPRPRPRPYCDPRP

>  <class>
b0

$$$$
>  <biopolymer_sequence>
RRIRCRPPRLPRPRPRPYIYPRP

>  <class>
b0

$$$$
>  <biopolymer_sequence>
RRIRTRPPRLPRPRPRPALLPRP

>  <class>
b2

$$$$
>  <biopolymer_sequence>
RRIRSRPPRLPRPRPRPCKLPRP

>  <class>
b0

$$$$
>  <biopolymer_sequence>
RRIRYRPPRLPRPRPRPEGPPRP

>  <class>
b1

$$$$
